Items are presented alongside their recorded IC50.
- test-system: Avi-KRAS G12D (1-169) GppNHp/RAF1 RBD-3xFLAG (52-151) (Homo sapiens, UniProt P01116, G12D)
- Construct: Avi-KRAS G12D (1-169)
- Sequence (P01116 1-169 isoform P01116-2 G12D): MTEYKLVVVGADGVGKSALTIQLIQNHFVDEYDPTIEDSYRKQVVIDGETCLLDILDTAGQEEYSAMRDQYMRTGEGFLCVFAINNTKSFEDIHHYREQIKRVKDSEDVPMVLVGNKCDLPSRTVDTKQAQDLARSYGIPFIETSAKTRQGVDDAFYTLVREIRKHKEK
- procedure-text: Raf1-KRAS G12D-GppNHP disruption HTRF assay (Biological Example 1)
- Assay type: binding
- details: KRAS G12D-GppNHp/RAF1 RBD HTRF

| molecule | IC50 |
| --- | --- |
| N#Cc1c(N)sc2c(F)ccc(-c3c(C(F)(F)F)cc4c(N5C[C@H]6C[C@@H]5CO6)nc(OC[C@@]56CCCN5C[C@H](F)C6)nc4c3F)c12 (single isomer, unassigned) [Compound 287] | 100 to 1000 nM |
| N#Cc1c(N)sc2c(F)ccc(-c3c(C(F)(F)F)cc4c(N5CCc6cn[nH]c6C5)nc(OC[C@@]56CCCN5C[C@H](F)C6)nc4c3F)c12 | 1000 to 10000 nM |
| CN(c1nc(OC[C@@]23CCCN2C[C@H](F)C3)nc2c(F)c(-c3ccc(F)c4sc(N)c(C#N)c34)c(C(F)(F)F)cc12)[C@H]1CC[C@@H](O)C1 | 100 to 1000 nM |
| C[C@@H]1[C@H](N(C)c2nc(OC[C@@]34CCCN3C[C@H](F)C4)nc3c(F)c(-c4ccc(F)c5sc(N)c(C#N)c45)c(Cl)cc23)CCN1C(=O)C(F)F | 100 to 1000 nM |
| CC(C)C(=O)N1CC[C@@H]2[C@H]1CN2c1nc(OC[C@@]23CCCN2C[C@H](F)C3)nc2c(F)c(-c3ccc(F)c4sc(N)c(C#N)c34)c(C(F)(F)F)cc12 | 1000 to 10000 nM |
| N#Cc1c(N)sc2c(F)ccc(-c3c(C(F)(F)F)cc4c(N5CCO[C@@H]6C[C@@H]65)nc(OC[C@@]56CCCN5C[C@H](F)C6)nc4c3F)c12 | 100 to 1000 nM |
| N#Cc1c(N)sc2c(F)ccc(-c3c(C(F)(F)F)cc4c(N5C[C@@H]6CC[C@H]5CN6C(=O)C5CC5)nc(OC[C@@]56CCCN5C[C@H](F)C6)nc4c3F)c12 | 100 to 1000 nM |
| CCN(c1nc(OC[C@@]23CCCN2C[C@H](F)C3)nc2c(F)c(-c3ccc(F)c4sc(N)c(C#N)c34)c(C(F)(F)F)cc12)[C@H]1CCN(C(=O)N2CCOCC2)C1 (atropisomer, axis not shown) | < 100 nM |
